B1: library; a variant is named by its letters at N, in order (parent)
chain: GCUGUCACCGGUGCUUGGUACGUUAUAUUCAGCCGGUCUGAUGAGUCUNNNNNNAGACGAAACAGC

variants of: B1; experiment: FACS-Seq fitted mean relative fluorescence mCherry/BFP without ligand (log10 relative fluorescence); HEK293T overexpressing SLC46A1; higher = higher reporter protein expression; details: without (6R,S)-folinic acid; ligand present: no
For each entry below, report its FACS-Seq fitted mean (log10) value.
// return a plain number; no unit text

Quick one: FACS-Seq fitted mean (log10) for UAAGAA ? 0.023

Now try GUAGAA . 0.384

And what about the variant UAUAGC ? 0.469

// same read-out, input: AAGAAG 0.22

Okay, and UGUGGG ? 0.109

Field entry: CCCGGU 0.139

Request: GAUGUU 0.317
